target or test system: Sialic acid-binding Ig-like lectin 9 (Homo sapiens)
test details: Hs-Siglec9 ALPHAscreen SOP 20170721
Design: scale not given: direction of the effect not stated beside the values
measurement conditions: 10 µM
# Percent Effect per entry

chemical smiles | Percent Effect (%)
CCc1nnc2n1CCN(C(=O)c1ccc3[nH]cnc3c1)C2 | 41.5
Cc1cccc(C(=O)N2CCN(S(C)(=O)=O)[C@@H](C)C2)c1C | -4.05
Cc1nc(Cn2nc(C3CCNCC3)n(Cc3ccccc3)c2=O)no1 | 2.54
CNC(=O)c1cc2c(nc1NCC1CC1)CCN(S(=O)(=O)C1CC1)CC2 | -14.9
CC(C)Cc1noc(CN2CCN(CCO)CC2)n1 | -0.0672
Cc1nn(C)c(N2CCOCC2)c1CNCc1ccc(Cl)s1 | -1.94
COCCN(C)Cc1ccc(OC)c(OC(F)F)c1 | 0.875
CN(C)C(=O)CNC(=O)Nc1cccc(Cl)c1SC(F)F | 11.5
O=C(CCCn1cncn1)NC1(c2ccccc2)CCC1 | 8.16
CCc1nnc2n1CCN(Cc1ccc3c(c1)OCCO3)C2 | -8.03
